Field: pIC50. System: Sterol O-acyltransferase 1 (Rattus norvegicus, UniProt O70536). Provenance: assorted publications.
Sequence (O70536 whole entry): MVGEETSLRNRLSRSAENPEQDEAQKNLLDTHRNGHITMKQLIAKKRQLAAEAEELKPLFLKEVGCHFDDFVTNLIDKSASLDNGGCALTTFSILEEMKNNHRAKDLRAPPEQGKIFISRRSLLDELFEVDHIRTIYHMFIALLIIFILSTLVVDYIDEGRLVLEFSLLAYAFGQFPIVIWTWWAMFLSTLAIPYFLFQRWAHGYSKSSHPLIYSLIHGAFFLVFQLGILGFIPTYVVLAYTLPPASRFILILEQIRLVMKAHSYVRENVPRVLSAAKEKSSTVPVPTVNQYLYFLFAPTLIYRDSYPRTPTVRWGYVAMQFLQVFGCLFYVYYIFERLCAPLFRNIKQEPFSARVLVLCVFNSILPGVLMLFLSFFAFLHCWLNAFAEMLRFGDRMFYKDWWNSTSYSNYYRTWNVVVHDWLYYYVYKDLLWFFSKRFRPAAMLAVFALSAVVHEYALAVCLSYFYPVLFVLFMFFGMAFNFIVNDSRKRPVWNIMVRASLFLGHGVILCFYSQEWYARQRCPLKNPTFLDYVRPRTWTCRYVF
pIC50: −log10 of the molar value.
// thresholds for pIC50 classes: Low: < 5; Mid: ≥ 5 and < 7; High: ≥ 7

Consider the worked cases shown below.
Task item: For this compound, which bin applies? `O=c1cc(-c2ccccc2)c(-c2ccccc2)nn1C1CCCCC1`
Reply: Low

Task item: Another compound to check: `CCCCCCCCCCCCOS(=O)(=O)[N-]C(=O)Nc1c(C(C)C)cccc1C(C)C.[Na+]`
Reply: Mid

Task item: Another compound to check: `CCOC(=O)NS(=O)(=O)Oc1c(C(C)C)cccc1C(C)C`
Reply: Low

Task item: Another compound to check: CCCCCCC(C)OC(=O)NS(=O)(=O)Oc1c(C(C)C)cccc1C(C)C (stereo not drawn)
Reply: Low

Task item: Another compound to check: `c1ccc(-c2nc(SCCCCCSc3ncc[nH]3)[nH]c2-c2ccccc2)cc1`
Reply: High

Task item: Another compound to check: O=C(NC(Cc1ccccc1)c1ncc[nH]1)C(c1ccccc1)c1ccccc1 (stereo not drawn)
Reply: Low

Task item: Another compound to check: `CCCCCCCN(CCCCCSc1nc(-c2ccccc2)c(-c2ccccc2)[nH]1)C(=O)c1ccccc1`
Reply: High

Task item: Another compound to check: `c1ccc(-c2nc(SCCCC3OCCCO3)[nH]c2-c2ccccc2)cc1`
Reply: High

---
Task item: For this compound, which bin applies? Clc1cccc(-c2[nH]c(SCC3CCCCO3)nc2-c2ccccc2)c1 (stereo not drawn)
Reply: Mid

Task item: Another compound to check: `CCCCCCCOc1cc(-c2ccccc2)c(-c2ccccc2)nn1`
Reply: Low

Task item: Another compound to check: `CCCCCN(CCCCC)S(=O)(=O)NC(=O)Nc1c(C(C)C)cccc1C(C)C`
Reply: Mid

Task item: Another compound to check: `Cc1cc(C)c2ncc(NC(=O)Nc3ccc(F)cc3F)c(-c3ccccc3C)c2c1`
Reply: High

Task item: Another compound to check: `Cn1ccnc1SCCCSc1nc(-c2ccccc2)c(-c2ccccc2)[nH]1`
Reply: High

Task item: Another compound to check: `O=C(Nc1ccc(Cl)cc1)Nc1cnc2ccc(Cl)cc2c1-c1ccccc1`
Reply: Mid

Task item: Another compound to check: `CCCCCCCN(CCCCCSc1nc(-c2ccccc2)c(-c2ccccc2)[nH]1)C(=O)NC1CCCCC1`
Reply: High

Task item: Another compound to check: `CCOC(=O)[N-]S(=O)(=O)Oc1c(C(C)C)cccc1C(C)C.[Na+]`
Reply: Low

Task item: Another compound to check: CC(C)c1cccc(C(C)C)c1OS(=O)(=O)NC(=O)OC1C2CC3CC(C2)CC1C3 (stereo not drawn)
Reply: Low

Task item: Another compound to check: `CC(C)c1cccc(C(C)C)c1NC(=O)NS(=O)(=O)N(C)C`
Reply: Mid

Task item: Another compound to check: `CO[C@H]1C[C@@](C)(O)C[C@H](CSc2nc(-c3ccccc3)c(-c3ccccc3)[nH]2)O1`
Reply: Mid

Task item: Another compound to check: `CCCCCCCN(CCCCCSc1nc(-c2ccccc2)c(-c2ccccc2)[nH]1)C(=O)NC(C)C`
Reply: High

----------
Field: pIC50. System: Sterol O-acyltransferase 1 (Rattus norvegicus). Provenance: assorted publications.
pIC50: −log10 of the molar value.
Response key: met means pIC50 >= 7; not met means pIC50 < 7.

Consider the worked cases shown below.
Task item: Is pIC50 at least 7? Consider `O=C(O)CCCCCSc1cc(-c2ccccc2)c(-c2ccccc2)nn1`
Reply: not met

Task item: Another compound to check: `CCCCN(CCCC)S(=O)(=O)N(C)C(=O)Nc1c(C(C)C)cccc1C(C)C`
Reply: not met

Task item: Another compound to check: `CC(C)c1cccc(C(C)C)c1NC(=O)NS(=O)(=O)N(C(C)C)C1CCCCC1`
Reply: not met

Task item: Another compound to check: `C=CCN(CC=C)S(=O)(=O)NC(=O)Nc1c(C(C)C)cccc1C(C)C`
Reply: not met

---
Task item: Is pIC50 at least 7? Consider `O=C(NCCCCCSc1nc(-c2ccccc2)c(-c2ccccc2)[nH]1)Nc1ccc(F)cc1F`
Reply: not met

Task item: Another compound to check: CCCCCCCCCCCCc1cnn(C(C(=O)Nc2c(OC)cc(OC)cc2OC)c2ccccc2)c1 (stereo not given)
Reply: met

Task item: Another compound to check: CCCCCCC[S+]([O-])c1cc(-c2ccccc2)c(-c2ccccc2)nn1 (stereo not given)
Reply: not met

Task item: Another compound to check: `CCCCCCCCNc1cc(-c2ccccc2)c(-c2ccccc2)nn1`
Reply: not met

Task item: Another compound to check: `CC(C)CCN(CCC(C)C)S(=O)(=O)NC(=O)Nc1c(C(C)C)cccc1C(C)C`
Reply: not met

Task item: Another compound to check: `Cc1cc(C)c2ncc(NC(=O)Nc3ccc(F)cc3F)c(-c3ccccc3Cl)c2c1`
Reply: met
